ASSAY_METHOD_TEXT: CCK-8 cytotoxicity assay, HK-2 cells
Assay type: cell-based, human
PROTOCOL_CONDITIONS: human, HK-2 cells versus SiHa cells; HK-2 vs SiHa; read-out: selectivity toward SiHa, fold decrease in cytotoxicity against HK-2
READOUT_KIND: selectivity ratio at 48 h

MOLECULE: O=C(Nc1ccc(C(=O)/C=C/c2cc(F)cc(F)c2)cc1)Nc1ccc(Cl)c(C(F)(F)F)c1 [Compound 2l]
MEASURED_VALUE: 20.3

====

Tested on: human chronic myeloid leukemia cell line K562
ASSAY_METHOD_TEXT: CCK-8 cytotoxicity assay, K562 cells
Format: cell-based
PROTOCOL_CONDITIONS: Homo sapiens, K562, 48 h, CCK-8, 48 h incubation, mean ± SD, n = 3
pIC50: −log10 of the molar value.

COMPOUND: O=C(Nc1ccc(C(=O)/C=C/c2ccc(Cl)cc2)cc1)Nc1ccc(Cl)c(C(F)(F)F)c1
pIC50: 5.08
--
COMPOUND: O=C(Nc1ccc(C(=O)/C=C/c2ccc(O)c(O)c2)cc1)Nc1ccc(Cl)c(C(F)(F)F)c1
pIC50: 5.95
--
COMPOUND: COc1ccc(/C=C/C(=O)c2ccc(NC(=O)Nc3ccc(Cl)c(C(F)(F)F)c3)cc2)c(OC)c1OC
pIC50: 5.62
